Molecular target: STAT6 (Homo sapiens)
Construct: These cells express endogenous STAT6; host or cells: HeLa LgBiT clone 4.14 (CRISPR knock-in of HiBiT into the endogenous STAT6 gene)
Sequence (P42226 whole entry): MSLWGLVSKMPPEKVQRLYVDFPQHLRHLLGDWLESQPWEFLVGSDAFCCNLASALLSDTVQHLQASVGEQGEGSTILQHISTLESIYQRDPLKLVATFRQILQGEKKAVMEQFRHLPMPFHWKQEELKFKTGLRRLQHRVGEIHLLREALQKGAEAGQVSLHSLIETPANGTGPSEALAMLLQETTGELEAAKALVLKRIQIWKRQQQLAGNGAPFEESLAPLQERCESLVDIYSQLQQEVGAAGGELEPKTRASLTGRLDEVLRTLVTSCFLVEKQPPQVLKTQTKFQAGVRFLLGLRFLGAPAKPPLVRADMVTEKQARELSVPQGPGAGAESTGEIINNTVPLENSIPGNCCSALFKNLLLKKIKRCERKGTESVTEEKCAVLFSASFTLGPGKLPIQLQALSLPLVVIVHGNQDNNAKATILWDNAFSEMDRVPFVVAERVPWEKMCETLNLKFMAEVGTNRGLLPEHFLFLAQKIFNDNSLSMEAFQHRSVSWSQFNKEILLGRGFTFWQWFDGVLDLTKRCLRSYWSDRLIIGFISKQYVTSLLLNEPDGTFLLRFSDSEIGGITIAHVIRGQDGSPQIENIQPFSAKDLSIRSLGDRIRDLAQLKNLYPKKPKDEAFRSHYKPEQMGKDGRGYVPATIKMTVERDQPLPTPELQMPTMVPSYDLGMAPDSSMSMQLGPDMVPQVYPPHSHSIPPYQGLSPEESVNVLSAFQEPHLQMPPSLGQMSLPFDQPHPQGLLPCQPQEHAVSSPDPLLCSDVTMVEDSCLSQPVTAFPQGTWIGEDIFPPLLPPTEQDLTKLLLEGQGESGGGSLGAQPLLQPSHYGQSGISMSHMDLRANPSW
Assay: STAT6 Degrader Assay (HiBiT based, HeLa LgBiT clone 4.14 cells)
Format: cell-based
Details: HeLa; maximal STAT6 degradation
Description: This was a HiBit based assay. A HeLa cell line stably transfected with a small protein, LgBit (Large Bit) was obtained from Promega. These cells express endogenous STAT6. […] Single cell clones were prepared and the clone 4.14 was selected for the assay based on that clone showing high luminescence, high STAT6 phosphorylation upon stimulation with IL-4, and inhibition of luminescence when cells were treated with STAT6 siRNA. […] The measured DC50 (in nM) was determined.
attributeMeasured: Emax

A selection of reference data follows.
# molecule, systemUnderTest, Emax
records = [
    ("Cc1cc(C(=O)N(C)c2ccc(C3CCN(c4ccc(NC5CCC(=O)NC5=O)cc4F)CC3)cc2)cc(F)c1C1=CCN([C@H](C)c2cc3c(-n4ccc5[nH]ncc5c4=O)ccnc3n2C)CC1 (some centres unmarked)", "STAT6 (Homo sapiens)", "60 to 70%"),
    ("Cc1cc(C(=O)N2CCC(CN3CCN(c4ncc(NC5CCC(=O)NC5=O)cc4F)CC3)CC2)cc(F)c1C1=CCN([C@@H](C)c2cc3c(-n4ccc5c(c4=O)CCN5)ccnc3n2C)CC1 (some centres unmarked)", "STAT6 (Homo sapiens)", "< 20%"),
    ("Cc1cc(C(=O)N(C)c2ccc(C3CCN(c4ccc(NC5CCC(=O)NC5=O)cc4F)CC3)cc2)cc(F)c1C1=CCN([C@H](C)c2cc3c(-n4ccc5[nH]ccc5c4=O)ccnc3n2C)CC1 (some centres unmarked)", "STAT6 (Homo sapiens)", "50 to 60%"),
]

Form field: Emax recorded for COc1cc(N2CCN(CC3CCN(C(=O)c4cc(C)c(C5=CCN([C@@H](C)c6cc7c(-n8cc(F)c9c(c8=O)CCN9)ccnc7n6C)CC5)c(F)c4)CC3)CC2)ccc1NC1CCC(=O)NC1=O (some centres unmarked) with STAT6 (Homo sapiens) (enter value)
30 to 40%

Form field: Emax recorded for CNc1ccn(-c2ccnc3c2cc(CN2CC=C(c4c(C)cc(C(=O)N5CCC(CN6CCN(c7ccc(N[C@H]8CCC(=O)NC8=O)cc7F)CC6)CC5)cc4F)CC2)n3C)c(=O)c1 (single isomer, unassigned) with STAT6 (Homo sapiens) (enter value)
70 to 80%

---

Each entry below carries its reported pEC50.
system: Eotaxin-3 (CCL26) release; assay: Human Whole Blood Eotaxin-3 Assay (IL-4 stimulated); assay type: cell-based; settings: Homo sapiens; geometric mean across assay runs and compound batches; EC50 provided for test compounds with >80% Emax
pEC50 is a log-scale quantity: -log10 of the concentration expressed in molar.

A selection of reference data follows.
# compound, systemUnderTest, measured
records = [
    ("CNc1ccn(-c2ccnc3c2cc(CN2CCC(c4c(F)cc(C(=O)N5CCn6nc(CN7CCC(c8ccc(NC9CCC(=O)NC9=O)cc8F)CC7)cc6C5)cc4F)CC2)n3C)c(=O)c1 (centres unmarked) [Example 2g100]", "Eotaxin-3 (CCL26) release", 8.74),
    ("CNc1ccn(-c2ccnc3c2cc([C@H](C)N2CC=C(c4c(C)cc(C(=O)N5CCn6nc(CC7(O)CCN(c8ccc(NC9CCC(=O)NC9=O)cc8F)CC7)cc6C5)cc4F)CC2)n3C)c(=O)c1 (some centres unmarked)", "Eotaxin-3 (CCL26) release", 9.05),
]

Form field: pEC50 recorded for CNc1cc(=O)n(-c2ccnc3c2cc([C@H](C)N2CC=C(c4c(F)cc(C(=O)N5CCn6nc(CN7CCC(c8ccc(NC9CCC(=O)NC9=O)cc8F)CC7)cc6C5)cc4F)CC2)n3C)cc1F (some centres unmarked) with Eotaxin-3 (CCL26) release (enter value)
9.05

Form field: pEC50 recorded for CNc1nc(=O)n(-c2ccnc3c2cc([C@H](C)N2CC=C(c4c(C)cc(C(=O)N5CCn6nc(CN7CCC(c8ccc(NC9CCC(=O)NC9=O)c(OC)c8)CC7)cc6C5)cc4F)CC2)n3C)cc1F (some centres unmarked) with Eotaxin-3 (CCL26) release (enter value)
8.77

Form field: pEC50 recorded for CNc1cc(=O)n(-c2ccnc3c2cc([C@H](C)N2CC=C(c4c(C)cc(C(=O)N5CCn6nc(CN7CCC(c8ccc(NC9CCC(=O)NC9=O)c(OC)c8)CC7)cc6C5)cc4F)CC2)n3C)cc1F (some centres unmarked) with Eotaxin-3 (CCL26) release (enter value)
9.22
